assaySummary: Cmax in Sprague-Dawley rat at 2 mg/kg, iv by LC/MS analysis
Assay type: ADME, organism-based
Parameters: dose 2 mg/kg, route intravenous
cond: in vivo
reportedMetric: Cmax (ng/mL)
Answers are plain numbers, in ng/mL.

IN: Query (molecule): Cc1cn2nc(C)c(C(=O)NCc3ccc(N4CCC(c5ccc(OC(F)(F)F)cc5)CC4)cc3)c2s1 ; field requested: Cmax
OUT: 1720

###

assaySummary: Tmax in Sprague-Dawley rat at 10 mg/kg, administered through oral gavage by LC/MS analysis
Type: ADME, organism-based
cond: in vivo
reportedMetric: Tmax (h)
One number for each entry, in h.

IN: Query (compound): Cc1cn2nc(C)c(C(=O)NCc3ccc(N4CCC(c5ccc(OC(F)(F)F)cc5)CC4)cc3)c2s1 ; field requested: Tmax
OUT: 5
